# TESTED SYSTEM: SauIRS (isoleucyl-tRNA synthetase from Staphylococcus aureus) (Staphylococcus aureus, UniProt P41972)
# Construct: made in house; host or cells: Escherichia coli M15
# Sequence (P41972 1-917): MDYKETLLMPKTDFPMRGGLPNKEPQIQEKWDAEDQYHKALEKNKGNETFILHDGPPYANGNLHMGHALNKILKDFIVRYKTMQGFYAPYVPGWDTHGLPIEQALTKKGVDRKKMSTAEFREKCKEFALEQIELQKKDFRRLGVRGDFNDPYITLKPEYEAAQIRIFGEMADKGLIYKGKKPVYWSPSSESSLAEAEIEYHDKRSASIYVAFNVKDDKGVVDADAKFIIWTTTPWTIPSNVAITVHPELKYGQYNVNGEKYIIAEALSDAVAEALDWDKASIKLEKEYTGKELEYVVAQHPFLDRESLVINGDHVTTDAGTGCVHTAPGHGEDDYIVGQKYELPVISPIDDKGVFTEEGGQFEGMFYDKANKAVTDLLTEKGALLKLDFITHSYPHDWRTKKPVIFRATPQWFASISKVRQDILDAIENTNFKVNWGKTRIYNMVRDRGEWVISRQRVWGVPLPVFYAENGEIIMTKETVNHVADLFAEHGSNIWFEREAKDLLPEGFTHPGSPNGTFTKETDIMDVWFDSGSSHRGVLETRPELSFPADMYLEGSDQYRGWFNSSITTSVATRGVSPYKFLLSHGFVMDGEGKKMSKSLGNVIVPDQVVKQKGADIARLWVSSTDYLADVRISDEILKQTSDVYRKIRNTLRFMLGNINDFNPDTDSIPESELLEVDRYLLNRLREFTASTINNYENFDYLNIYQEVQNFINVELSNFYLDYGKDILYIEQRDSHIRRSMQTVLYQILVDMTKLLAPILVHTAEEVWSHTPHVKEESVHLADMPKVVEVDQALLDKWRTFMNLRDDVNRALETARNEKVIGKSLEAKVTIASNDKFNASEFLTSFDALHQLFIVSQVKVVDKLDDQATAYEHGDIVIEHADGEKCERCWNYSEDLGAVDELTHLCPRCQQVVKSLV
# ASSAY EXPLANATION: aaRS aminoacylation assay (ATP consumption), SauIRS
# Type: biochemical
# RUN PARAMETERS: i.a. = inactive at a concentration below 50 uM

{"MOLECULE": "CC(C)C[C@H](N)C(=O)NS(=O)(=O)c1cccc(-c2cc(-c3ccccc3)nc(N)n2)c1", "IC50 SauIRS": "i.a."}
{"MOLECULE": "CCc1cc(-c2cccc(S(=O)(=O)NC(=O)[C@@H](N)CC(C)C)c2)nc(N)n1", "IC50 SauIRS": "i.a."}
{"MOLECULE": "Cc1cc(-c2cccc(S(=O)(=O)NC(=O)[C@@H](N)CC(C)C)c2)nc(N)n1", "IC50 SauIRS": "i.a."}
{"MOLECULE": "CC(C)C[C@H](N)C(=O)NS(=O)(=O)c1cccc(-c2ccnc(O)n2)c1", "IC50 SauIRS": "i.a."}
{"MOLECULE": "Cc1cc(-c2cccc(S(=O)(=O)NC(=O)[C@@H](N)CC(C)C)c2)ncn1", "IC50 SauIRS": "i.a."}
{"MOLECULE": "N[C@@H](CC1CC1)C(=O)NS(=O)(=O)c1cccc(-c2ccccc2)c1 (racemic)", "IC50 SauIRS": "i.a"}
{"MOLECULE": "Cc1cc(-c2cccc(S(=O)(=O)NC(=O)[C@@H](N)CC3CCCCC3)c2)nc(N)n1", "IC50 SauIRS": "i.a"}
{"MOLECULE": "CCCCc1ccc(S(=O)(=O)NC(=O)[C@@H](N)CC(C)C)cc1", "IC50 SauIRS": "i.a"}

====

# TESTED SYSTEM: EcoVRS (valyl-tRNA synthetase from Escherichia coli) (Escherichia coli)
# Construct: made in house; host or cells: Escherichia coli M15
# Sequence (P07118 whole entry): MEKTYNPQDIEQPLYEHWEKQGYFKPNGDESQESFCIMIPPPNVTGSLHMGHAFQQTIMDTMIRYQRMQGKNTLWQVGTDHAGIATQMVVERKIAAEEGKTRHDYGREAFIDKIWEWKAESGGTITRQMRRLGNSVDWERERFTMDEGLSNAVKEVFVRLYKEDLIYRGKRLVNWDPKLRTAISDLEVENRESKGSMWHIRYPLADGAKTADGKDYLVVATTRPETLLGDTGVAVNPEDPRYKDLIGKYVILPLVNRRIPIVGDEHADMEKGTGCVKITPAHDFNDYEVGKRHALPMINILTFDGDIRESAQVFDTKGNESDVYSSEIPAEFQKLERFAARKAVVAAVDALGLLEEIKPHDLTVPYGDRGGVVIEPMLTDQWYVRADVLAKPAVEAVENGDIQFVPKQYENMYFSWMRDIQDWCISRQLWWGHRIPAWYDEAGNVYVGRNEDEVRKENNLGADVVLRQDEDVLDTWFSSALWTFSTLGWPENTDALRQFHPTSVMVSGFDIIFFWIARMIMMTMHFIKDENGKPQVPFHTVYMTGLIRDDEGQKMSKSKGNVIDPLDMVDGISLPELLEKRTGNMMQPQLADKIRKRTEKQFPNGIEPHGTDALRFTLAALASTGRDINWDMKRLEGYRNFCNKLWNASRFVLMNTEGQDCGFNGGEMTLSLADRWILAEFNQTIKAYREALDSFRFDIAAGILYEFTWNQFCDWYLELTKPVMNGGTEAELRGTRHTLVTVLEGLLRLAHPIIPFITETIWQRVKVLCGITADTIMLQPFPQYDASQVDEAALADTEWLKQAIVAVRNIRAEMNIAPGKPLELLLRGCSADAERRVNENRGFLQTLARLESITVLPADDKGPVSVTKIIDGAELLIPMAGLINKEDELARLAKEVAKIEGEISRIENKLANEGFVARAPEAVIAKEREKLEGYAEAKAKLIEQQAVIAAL
# ASSAY EXPLANATION: aaRS aminoacylation assay (ATP consumption), EcoVRS
# Type: biochemical
# RUN PARAMETERS: i.a. = inactive at a concentration below 50 uM
Where a name gives a salt, the structure may show the parent alone.

{"MOLECULE": "CC(C)C[C@H](N)C(=O)NS(=O)(=O)c1cccc(-c2nc(N)nc3nc[nH]c23)c1", "IC50 EcoVRS": "i.a."}
{"MOLECULE": "CC(C)C[C@H](N)C(=O)NS(=O)(=O)c1ccccc1 [Compound 5.1, hydrochloride]", "IC50 EcoVRS": "i.a."}
{"MOLECULE": "N[C@@H](CC1CC1)C(=O)NS(=O)(=O)c1cccc(-c2ccccc2)c1 (racemic)", "IC50 EcoVRS": "i.a"}
{"MOLECULE": "CC(C)C[C@H](N)C(=O)NS(=O)(=O)c1cccc(-c2ccnc(Cl)n2)c1", "IC50 EcoVRS": "i.a."}
{"MOLECULE": "COc1cc(-c2cccc(S(=O)(=O)NC(=O)[C@@H](N)CC(C)C)c2)nc(N)n1", "IC50 EcoVRS": "i.a."}
{"MOLECULE": "CC(C)C[C@H](N)C(=O)NS(=O)(=O)c1cccc2cc(C(N)=O)ncc12", "IC50 EcoVRS": "i.a"}
{"MOLECULE": "CC(C)C[C@H](N)C(=O)NS(=O)(=O)c1ccc2ccccc2c1", "IC50 EcoVRS": "i.a"}
{"MOLECULE": "COc1ccc2cc(S(=O)(=O)NC(=O)[C@@H](N)CC(C)C)ccc2c1", "IC50 EcoVRS": "i.a"}

====

# TESTED SYSTEM: EcoLRS (leucyl-tRNA synthetase from Escherichia coli) (Escherichia coli)
# Construct: made in house; host or cells: Escherichia coli M15
# Sequence (P07813 whole entry): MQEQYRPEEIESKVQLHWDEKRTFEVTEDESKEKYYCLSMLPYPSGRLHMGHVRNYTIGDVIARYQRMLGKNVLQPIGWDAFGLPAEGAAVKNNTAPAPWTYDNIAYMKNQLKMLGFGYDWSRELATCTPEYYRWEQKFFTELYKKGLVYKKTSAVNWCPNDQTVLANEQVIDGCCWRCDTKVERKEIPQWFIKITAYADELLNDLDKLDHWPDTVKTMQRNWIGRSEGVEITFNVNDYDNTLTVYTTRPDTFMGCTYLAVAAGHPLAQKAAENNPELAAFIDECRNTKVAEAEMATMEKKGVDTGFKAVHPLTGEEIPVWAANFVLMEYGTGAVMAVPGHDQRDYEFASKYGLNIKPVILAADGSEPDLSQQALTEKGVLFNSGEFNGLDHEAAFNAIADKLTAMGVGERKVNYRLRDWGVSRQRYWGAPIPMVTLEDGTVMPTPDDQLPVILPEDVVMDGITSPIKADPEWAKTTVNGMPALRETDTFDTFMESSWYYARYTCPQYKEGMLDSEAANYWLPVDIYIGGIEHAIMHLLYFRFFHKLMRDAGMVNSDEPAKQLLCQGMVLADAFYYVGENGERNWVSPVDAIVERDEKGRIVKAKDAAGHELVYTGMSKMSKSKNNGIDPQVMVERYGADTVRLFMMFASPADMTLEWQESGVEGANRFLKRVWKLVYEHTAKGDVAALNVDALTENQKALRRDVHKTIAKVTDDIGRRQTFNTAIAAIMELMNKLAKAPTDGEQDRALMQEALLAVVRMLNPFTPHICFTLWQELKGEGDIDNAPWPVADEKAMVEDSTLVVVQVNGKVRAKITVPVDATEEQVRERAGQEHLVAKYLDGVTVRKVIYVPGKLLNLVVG
# ASSAY EXPLANATION: aaRS aminoacylation assay (ATP consumption), EcoLRS
# Type: biochemical
# RUN PARAMETERS: i.a. = inactive at a concentration below 50 uM; read-out: IC50 EcoLRS
Counter-ions that a name gives are not always drawn.
Lab note: cut-off is 30 nM. Strictly less in IC50 is satisfied. Exactly 30 nM or more is not satisfied.

{"MOLECULE": "CC(C)C[C@H](N)C(=O)NS(=O)(=O)c1ccccc1 [Compound 5.1, hydrochloride]", "CATEGORY LABEL": "not satisfied"}
{"MOLECULE": "CC(C)C[C@H](N)C(=O)NS(=O)(=O)c1cccc(-c2ccnc(N)n2)c1", "CATEGORY LABEL": "not satisfied"}
{"MOLECULE": "CC(C)C[C@H](N)C(=O)NS(=O)(=O)c1cccc(-c2ccncc2)c1", "CATEGORY LABEL": "satisfied"}
{"MOLECULE": "CC(C)C[C@H](N)C(=O)NS(=O)(=O)c1cccc(-c2ccccc2)c1", "CATEGORY LABEL": "not satisfied"}
{"MOLECULE": "CC(C)C[C@H](N)C(=O)NS(=O)(=O)c1ccc2ccccc2c1", "CATEGORY LABEL": "not satisfied"}

====

# TESTED SYSTEM: SauVRS (valyl-tRNA synthetase from Staphylococcus aureus) (Staphylococcus aureus)
# Construct: made in house; host or cells: Escherichia coli M15
# Sequence (Q2FXR8 whole entry): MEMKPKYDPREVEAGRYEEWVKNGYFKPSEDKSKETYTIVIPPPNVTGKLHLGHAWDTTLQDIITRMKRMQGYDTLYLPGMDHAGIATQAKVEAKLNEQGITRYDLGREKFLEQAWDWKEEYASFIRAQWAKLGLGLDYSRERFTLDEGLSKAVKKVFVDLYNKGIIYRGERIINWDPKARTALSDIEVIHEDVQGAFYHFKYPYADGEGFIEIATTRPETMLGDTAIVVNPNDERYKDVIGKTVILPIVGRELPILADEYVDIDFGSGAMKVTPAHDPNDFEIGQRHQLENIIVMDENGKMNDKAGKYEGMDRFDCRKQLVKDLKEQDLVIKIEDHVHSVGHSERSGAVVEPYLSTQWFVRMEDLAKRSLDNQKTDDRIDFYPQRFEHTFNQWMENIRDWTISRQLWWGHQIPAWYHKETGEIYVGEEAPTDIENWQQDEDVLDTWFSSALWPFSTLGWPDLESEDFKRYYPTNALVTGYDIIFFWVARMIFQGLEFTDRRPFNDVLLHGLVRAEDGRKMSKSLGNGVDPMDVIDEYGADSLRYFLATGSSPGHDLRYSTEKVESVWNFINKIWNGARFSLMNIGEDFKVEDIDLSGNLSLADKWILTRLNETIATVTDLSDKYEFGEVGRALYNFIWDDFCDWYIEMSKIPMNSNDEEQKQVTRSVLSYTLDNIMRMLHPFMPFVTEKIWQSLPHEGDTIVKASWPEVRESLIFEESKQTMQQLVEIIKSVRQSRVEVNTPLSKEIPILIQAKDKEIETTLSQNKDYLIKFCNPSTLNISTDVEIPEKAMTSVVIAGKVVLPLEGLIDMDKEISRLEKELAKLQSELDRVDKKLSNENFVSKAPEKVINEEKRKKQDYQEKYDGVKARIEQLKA
# ASSAY EXPLANATION: aaRS aminoacylation assay (ATP consumption), SauVRS
# Format: biochemical
# RUN PARAMETERS: i.a. = inactive at a concentration below 50 uM
Counter-ions that a name gives are not always drawn.

{"COMPOUND": "CCCCc1ccc(S(=O)(=O)NC(=O)[C@@H](N)CC(C)C)cc1", "IC50 SauVRS": "i.a"}
{"COMPOUND": "CC(C)C[C@H](N)C(=O)NS(=O)(=O)c1ccccc1Cl", "IC50 SauVRS": "i.a"}
{"COMPOUND": "CC(C)C[C@H](N)C(=O)NS(=O)(=O)c1ccc(Oc2ccccc2)cc1", "IC50 SauVRS": "i.a"}
{"COMPOUND": "CC(C)C[C@H](N)C(=O)NS(=O)(=O)c1ccccc1 [Compound 5.1, hydrochloride]", "IC50 SauVRS": "i.a."}
{"COMPOUND": "CC(C)C[C@H](N)C(=O)NS(=O)(=O)c1cccc(-c2ccnc(O)n2)c1", "IC50 SauVRS": "i.a."}
{"COMPOUND": "CC(C)C[C@H](N)C(=O)NS(=O)(=O)c1cccc2c(N(C)C)cccc12 [Compound 5.16, hydrochloride]", "IC50 SauVRS": "i.a"}
{"COMPOUND": "CC(C)C[C@H](N)C(=O)NS(=O)(=O)c1cccc(-c2ccnc(N)c2)c1", "IC50 SauVRS": "i.a."}
{"COMPOUND": "CC(C)C[C@H](N)C(=O)NS(=O)(=O)c1cccc(-c2cc(-c3ccccc3)nc(N)n2)c1", "IC50 SauVRS": "i.a."}
